# Read-out: Intercellular Adhesion Molecule 1 (ICAM1), ICAM1 (gene 3383)
# assay_procedure: BSK_KF3CT_ICAM1: BioMAP Diversity Plus: KF3CT Assay for Intercellular Adhesion Molecule 1 (ICAM1) Biomarker Activity (AID 2283067)
# test_settings: primary human keratinocytes with fibroblasts; actives raise or lower the signal
# Experimental: BSK_KF3CT is a cell-based, multiplexed-readout assay that uses keratinocytes and foreskin fibroblasts, a human skin primary cell co-culture, with measurements taken at 24 hours after chemical dosing in a 96-well plate.BSK_KF3CT_ICAM1 is an assay component measured in the BSK_KF3CT assay. It measures ICAM-1 antibody related to regulation of gene expression using ELISA technology.Data from the assay component BSK_KF3CT_ICAM1 was analyzed into 1 assay endpoint. […]
Activity calls are given as the source filed them. Rule for the calls: active = hit-call score of the fitted dose curve at least 0.9, where 1 is the maximum; inactive = score below 0.9.
Answer with one of the outcomes given here: t (active), f (inactive)

In: Assay outcome for CSc1nnc(C(C)(C)C)c(=O)n1N : what was it?
Out: f

In: And for CCCSP(=O)(OCC)SCCC ?
Out: f

In: And for CNC(=O)Oc1cccc2c1OC(C)(C)O2 ?
Out: f

In: And for COP(=O)(OC)OC(Br)C(Cl)(Cl)Br (centres undefined) ?
Out: t

In: And for CCOP(=S)(OCC)Oc1ccc2c(C)c(Cl)c(=O)oc2c1 ?
Out: f

In: And for CC(Oc1cccc(Cl)c1)C(=O)O (centres undefined) ?
Out: f

In: And for CNc1cnn(-c2cccc(C(F)(F)F)c2)c(=O)c1Cl ?
Out: f

In: And for CCCCOC(=O)c1ccccc1C(=O)O ?
Out: f

----------
# assay_procedure: ATG_NRF2_ARE_CIS: Attagene CIS-FACTORIAL HepG2 Assay for human Nuclear Factor Erythroid 2 Related Factor 2 (NFR2) response to Antioxidant Response Elements (ARE) (AID 2282992);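 for AC50: reporter mRNA level measured by RT-PCR and capillary electrophoresis fluorescence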
# test_settings: HepG2 Attagene ARE/NRF2 reporter, transcription factor activity; actives raise or lower the signal
The source made the active and inactive calls. The calls were made as follows: active = hit-call score of the fitted dose curve at least 0.9, where 1 is the maximum; inactive = score below 0.9.
property_label: AC50

# example entries with known answers
>>> recorded_value("COP(=O)(OC)OC(Br)C(Cl)(Cl)Br (stereo not given)")
"inactive"
>>> recorded_value("Nc1nc(N)nc(NC2CC2)n1")
"inactive"
>>> recorded_value("CCOP(=O)(OCC)Oc1cc(C)nc(C(C)C)n1")
"inactive"
>>> recorded_value("CCOC(=O)CC(SP(=O)(OC)OC)C(=O)OCC (stereo not given)")
"21.9 µM (active)"

In: What does the data say about its AC50? Entry: CSC1=N[C@@](C)(c2ccccc2)C(=O)N1Nc1ccccc1
Out: 4.24 µM (active)

In: And for CC(=NC#N)N(C)Cc1ccc(Cl)nc1 ?
Out: inactive

In: And for CCOP(=O)(SC(C)CC)N1CCSC1=O (stereo not given) ?
Out: inactive

In: And for COc1ccc(C(=CC(=O)N2CCOCC2)c2ccc(Cl)cc2)cc1OC ?
Out: 8.76 µM (active)

In: And for CCCCOC(=O)[C@@H](C)Oc1ccc(Oc2ccc(C#N)cc2F)cc1 ?
Out: inactive

In: And for CCCCSP(=O)(SCCCC)SCCCC ?
Out: 18.3 µM (active)

----------
# Read-out: adenosine kinase (ADK) gene, ADK (gene 132)
# assay_procedure: LTEA_HepaRG_ADK: Life Technologies and Expression Analysis (LTEA) Assay for adenosine kinase (ADK) gene using HepaRG (AID 2283471)
# test_settings: mRNA level, 48 h; actives raise or lower the signal
Active and inactive are the calls of the source. Rule for the calls: active = hit-call score of the fitted dose curve at least 0.9, where 1 is the maximum; inactive = score below 0.9.
Answer with one of the outcomes given here: 1 for active, -1 for inactive

Example cases with answers are listed next.
>>> group("O=c1ccc(=O)[nH][nH]1")
-1
>>> group("COc1cc(OC)nc(Sc2cccc(Cl)c2C(=O)O)n1")
-1
>>> group("CCc1cnc(C2=NC(C)(C(C)C)C(=O)N2)c(C(=O)O)c1 (centres undefined)")
-1
>>> group("CC1(C(=O)Nc2ccc(O)c(Cl)c2Cl)CCCCC1")
-1
>>> group("CCOP(=S)(Oc1cnc(C(C)(C)C)nc1)OC(C)C (centres undefined)")
-1
>>> group("C#CCC1=C(C)C(OC(=O)C2C(C=C(C)C)C2(C)C)CC1=O (centres undefined)")
-1
>>> group("CSC1=N[C@@](C)(c2ccccc2)C(=O)N1Nc1ccccc1")
-1
>>> group("CCOP(=S)(OCC)OC(Cl)C(Cl)(Cl)Cl (centres undefined)")
-1

Attention now shifts to the item below.
In: Assay outcome for O=[N+]([O-])c1cc(C(F)(F)F)c(Cl)c([N+](=O)[O-])c1Nc1ncc(C(F)(F)F)cc1Cl : what was it?
Out: 1

----------
# assay_procedure: APR_HepG2_CellCycleArrest_24hr: Apredica 24-hour HepG2 Assay for Cell Cycle Arrest (AID 2282905);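 note: cell cycle arrest scored as ratio of 2N to 4N nuclear DNA content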
# test_settings: imaging, actives raise or lower the signal
Calls of active or inactive are those of the source. Rule for the calls: active = hit-call score of the fitted dose curve at least 0.9, where 1 is the maximum; inactive = score below 0.9.
Answer with one of the outcomes given here: active, inactive

In: Assay outcome for CN(C)[C@@H]1C(=O)C(C(N)=O)=C(O)[C@@]2(O)C(=O)C3=C(O)c4c(O)cccc4[C@@](C)(O)[C@H]3[C@H](O)[C@@H]12 : what was it?
Out: inactive

In: And for CC(C)[C@H](C(=O)O[C@H](C#N)c1cccc(Oc2ccccc2)c1)c1ccc(Cl)cc1 ?
Out: inactive

In: And for CCOP(=O)(SC(C)CC)N1CCSC1=O (centres undefined) ?
Out: inactive

In: And for CC(=NC#N)N(C)Cc1ccc(Cl)nc1 ?
Out: inactive

In: And for CCCOCC(=Nc1ccc(Cl)cc1C(F)(F)F)n1ccnc1 ?
Out: inactive

In: And for CC(C)=CC1C(C(=O)OCN2C(=O)C3=C(CCCC3)C2=O)C1(C)C (centres undefined) ?
Out: inactive

In: And for Cc1nn(-c2cc(NS(C)(=O)=O)c(Cl)cc2Cl)c(=O)n1C(F)F ?
Out: inactive

In: And for FC(F)C(F)(F)OCC(Cn1cncn1)c1ccc(Cl)cc1Cl (centres undefined) ?
Out: inactive

In: And for CCOP(=S)(OCC)Oc1cc(C)nc(C(C)C)n1 ?
Out: inactive

In: And for CSC1=N[C@@](C)(c2ccccc2)C(=O)N1Nc1ccccc1 ?
Out: inactive

In: And for CCc1cccc(C)c1N(C(=O)CCl)C(C)COC (centres undefined) ?
Out: inactive

In: And for CC(C1CC1)C(O)(Cn1cncn1)c1ccc(Cl)cc1 (centres undefined) ?
Out: inactive

----------
# assay_procedure: APR_HepG2_CellCycleArrest_24hr: Apredica 24-hour HepG2 Assay for Cell Cycle Arrest (AID 2282905);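 note: cell cycle arrest scored as ratio of 2N to 4N nuclear DNA content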
# test_settings: imaging, actives raise or lower the signal
Activity calls are given as the source filed them. Rule for the calls: active = hit-call score of the fitted dose curve at least 0.9, where 1 is the maximum; inactive = score below 0.9.
Answer with one of the outcomes given here: active, inactive

>>> group("CCCSP(=O)(OCC)SCCC")
"inactive"
>>> group("COP(=O)(OC)C(O)C(Cl)(Cl)Cl (configuration not stated)")
"active"
>>> group("CCc1cccc(CC)c1N(COC)C(=O)CCl")
"active"
>>> group("CNC(=O)ON=C(C)SC")
"inactive"

In: Assay outcome for C[Si](Cn1cncn1)(c1ccc(F)cc1)c1ccc(F)cc1 : what was it?
Out: inactive

In: And for O=c1ccc(=O)[nH][nH]1 ?
Out: inactive

In: And for CCc1cnc(C2=NC(C)(C(C)C)C(=O)N2)c(C(=O)O)c1 (configuration not stated) ?
Out: inactive
